- Experiment notes: Drug level in ICR mouse brain at 10 mg/kg, po measured after 2 hrs by LC-MS/MS analysis
- Type: ADME, organism-based
Readout name: concentration at 2 h (ng/mL)
Please state the figure in ng/mL; there is no need to write the unit.

Some entries whose results are on file:
>  <Substance smiles>
CCCN(CCCCNC(=O)c1cc2ccccc2[nH]1)C[C@@H]1C[C@H]1c1cccc(Cl)c1Cl.Cl

>  <concentration at 2 h [ng/mL]>
160

$$$$
>  <Substance smiles>
CCCN(CCCCNC(=O)c1ccc(-c2ccccn2)cc1)C[C@@H]1C[C@H]1c1cc(F)ccc1OC.Cl

>  <concentration at 2 h [ng/mL]>
6.57

$$$$

Prompt: For the molecule shown here, CCCN(CCCCNC(=O)c1ccc2ccccc2c1)C[C@@H]1C[C@H]1c1cccc(Cl)c1Cl.Cl , give the reported concentration at 2 h.
Response: 23.2

Prompt: Next: CCCN(CCCCNC(=O)c1ccc(-c2ccccn2)cc1)C[C@@H]1C[C@H]1c1cccc(Cl)c1Cl.Cl
Response: 9.1

###

Let's look at some compounds and their measured concentration at 0.5 h.
- Experiment notes: Drug level in ICR mouse brain at 5 mg/kg, iv measured after 0.5 hrs by LC-MS/MS analysis
- Type: ADME, organism-based

>  <Substance smiles>
CCCN(CCCCNC(=O)c1ccc(-c2ccccn2)cc1)C[C@@H]1C[C@H]1c1cc(F)ccc1OC.Cl

>  <concentration at 0.5 h>
530 ng/mL

$$$$

Prompt: For the compound shown here, CCCN(CCCCNC(=O)c1cc2ccccc2[nH]1)C[C@@H]1C[C@H]1c1cccc(Cl)c1Cl.Cl , give the reported concentration at 0.5 h.
Response: 833 ng/mL

Prompt: Next: CCCN(CCCCNC(=O)c1ccc2ccccc2c1)C[C@@H]1C[C@H]1c1cccc(Cl)c1Cl.Cl
Response: 3420 ng/mL

Prompt: Next: CCCN(CCCCNC(=O)c1ccc(-c2ccccn2)cc1)C[C@@H]1C[C@H]1c1cccc(Cl)c1Cl.Cl
Response: 980 ng/mL

###

Let's look at some compounds and their measured Ki.
- System tested: UniProtKB P35462
- Sequence (P35462 whole entry): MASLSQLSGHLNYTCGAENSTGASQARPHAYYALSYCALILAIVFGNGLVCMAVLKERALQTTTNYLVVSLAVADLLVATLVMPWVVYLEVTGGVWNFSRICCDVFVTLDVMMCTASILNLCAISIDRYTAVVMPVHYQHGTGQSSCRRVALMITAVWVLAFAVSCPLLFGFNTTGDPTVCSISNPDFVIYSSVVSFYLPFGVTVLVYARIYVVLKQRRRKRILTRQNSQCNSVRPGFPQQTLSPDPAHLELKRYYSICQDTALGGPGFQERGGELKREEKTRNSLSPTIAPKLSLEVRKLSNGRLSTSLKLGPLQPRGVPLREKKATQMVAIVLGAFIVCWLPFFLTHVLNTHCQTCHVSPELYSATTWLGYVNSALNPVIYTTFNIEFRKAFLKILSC
- Experiment notes: Displacement of [3H]-N-methylspiperone from recombinant human D3 receptor (unknown origin) measured after 90 mins by microbeta scintillation counting method
Please state the figure in nM; there is no need to write the unit.

Some entries whose results are on file:
>  <Compound>
CCCN(CCCSc1nnc(-c2ccccc2)n1C)CC1CC1c1cc(Cl)ccc1OC (stereo not drawn)

>  <Ki [nM]>
36.7

$$$$
>  <Compound>
CCCN(CCCCNC(=O)c1ccc2ccccc2c1)CC1CC1c1cc(F)ccc1OC (stereo not drawn)

>  <Ki [nM]>
14.5

$$$$
>  <Compound>
CCOc1ccc(F)cc1C1CC1CNCCCSc1nnc(-c2ccccc2)n1C (stereo not drawn)

>  <Ki [nM]>
219

$$$$
>  <Compound>
CCOc1ccc(F)cc1C1CC1CN(C)CCCSc1nnc(-c2ccccc2)n1C (stereo not drawn)

>  <Ki [nM]>
550

$$$$
>  <Compound>
CCCN(CCCCNC(=O)c1cc2ccccc2[nH]1)CC1CC1c1ccc(Cl)cc1 (stereo not drawn)

>  <Ki [nM]>
25.7

$$$$

Prompt: For the compound shown here, COc1ccc(F)cc1C1CC1CN(CCCSc1nnc(-c2ccccc2)n1C)C(C)C (stereo not drawn) , give the reported Ki.
Response: 105

Prompt: Next: CCCN(CCCCNC(=O)c1ccc2ccccc2c1)CC1CC1c1ccc(C(F)(F)F)cc1 (stereo not drawn)
Response: 43
